- test system: 5HT2A (Homo sapiens, UniProt P28223)
- Sequence (P28223 whole entry): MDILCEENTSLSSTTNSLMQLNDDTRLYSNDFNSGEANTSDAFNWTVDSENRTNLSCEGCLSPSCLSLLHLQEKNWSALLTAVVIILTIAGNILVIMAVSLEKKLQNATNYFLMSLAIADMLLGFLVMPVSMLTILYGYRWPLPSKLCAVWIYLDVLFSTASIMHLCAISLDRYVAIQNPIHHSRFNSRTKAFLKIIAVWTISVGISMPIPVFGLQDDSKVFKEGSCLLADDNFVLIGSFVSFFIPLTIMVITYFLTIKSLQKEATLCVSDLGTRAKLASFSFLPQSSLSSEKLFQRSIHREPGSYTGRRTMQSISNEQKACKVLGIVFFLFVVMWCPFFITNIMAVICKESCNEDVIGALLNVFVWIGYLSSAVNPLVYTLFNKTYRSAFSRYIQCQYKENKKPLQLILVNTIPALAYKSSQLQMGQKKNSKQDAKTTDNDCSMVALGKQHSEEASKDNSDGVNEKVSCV
- test details: 5HT2A Activity (% Max Activation @ 0.3 uM)
- Assay type: cell-based
Label yes (1) when Emax at 0.3 µM < 10%; otherwise no (0).

| compound | class assignment |
| --- | --- |
| COc1cc(CCNCc2cc(C)cc(Cl)c2)c(OC)cc1C [Compound 2-18] | no (0) |
| COc1ccc(OC)c2c1CCC(NCc1cc(C)cc(I)c1)C2 (centres unmarked) [Compound 1-5] | no (0) |
| COc1ccc(OC)c2c1CCC(NCc1cc(Cl)cc(Cl)c1)C2 (centres unmarked) [Compound 1-15] | no (0) |
| COc1ccc(OC)c([C@@H](O)CNCc2cc(C)cc(Cl)c2)c1 [Compound 2-32] | no (0) |
| COc1ccc(OC)c2c1CCC(NCc1cccc(Cl)c1C)C2 (centres unmarked) [Compound 1-9] | yes (1) |
